- Tested on: 4T1
- method-notes: Antiproliferative activity against mouse 4T1 cells after 48 hrs by MTT assay
- Assay type: functional, cell-based
- measurement-setup: 4T1, 48 h
measurement-type: IC50 (µg/mL)
Entry rule: numbers only, all in µg/mL.

Sample records with IC50:
compound | IC50, µg/mL
COc1ccccc1C(c1c(O)c2ccccc2oc1=O)c1c(O)c2ccccc2oc1=O | 52.2
N#CC1=C(N)OC2=C(C(=O)CC2)C1c1ccc(Cl)cc1Cl (stereo unspecified) | 127
CC1(C)CC(=O)C2=C(C1)OC(N)=C(C#N)C2c1cc(F)c(F)c(F)c1 (stereo unspecified) | 241
COc1ccc(C(c2c(O)c3ccccc3oc2=O)c2c(O)c3ccccc3oc2=O)cc1 | 85.7
O=c1oc2ccccc2c(O)c1C(c1ccc(F)c(F)c1)c1c(O)c2ccccc2oc1=O | 47.9
N#CC1=C(N)OC2=C(C(=O)CC2)C1c1cccc(C#N)c1 (stereo unspecified) | 125

Provide IC50, system 4T1, entry N#Cc1ccc(C(c2c(O)c3ccccc3oc2=O)c2c(O)c3ccccc3oc2=O)cc1
51.5

Provide IC50, system 4T1, entry COc1cc(C2C(C#N)=C(N)OC3=C2C(=O)CC3)cc(OC)c1OC (stereo unspecified)
153
